Give MIC for every item shown.
Numbers only here, please. The scale is µg/mL.

The compound Cc1nc(CC(=O)N[C@@H]2C(=O)N3C(C(=O)O)=C(Cl)CS[C@H]23)cs1 on Streptococcus pneumoniae PARK I: MIC was 1

The compound Nc1nc(CC(=O)N[C@@H]2C(=O)N3C(C(=O)O)=C(Cl)CS[C@H]23)cs1 on Streptococcus pneumoniae PARK I: MIC was 0.5

The compound O=C(Cc1csc(Cl)n1)N[C@@H]1C(=O)N2C(C(=O)O)=C(Cl)CS[C@H]12 on Streptococcus pneumoniae PARK I: MIC was 0.5

The compound O=C(Cc1csc(-c2ccccc2)n1)N[C@@H]1C(=O)N2C(C(=O)O)=C(Cl)CS[C@H]12 on Streptococcus pneumoniae PARK I: MIC was 0.125

----------
Test system: Haemophilus influenzae C.L.
Give MIC for every item shown.
Numbers only here, please. The scale is µg/mL.

O=C(Cc1csc(-c2ccccc2)n1)N[C@@H]1C(=O)N2C(C(=O)O)=C(Cl)CS[C@H]12 yielded MIC of 4

O=C(Cc1csc(Cl)n1)N[C@@H]1C(=O)N2C(C(=O)O)=C(Cl)CS[C@H]12 yielded MIC of 2

Nc1nc(CC(=O)N[C@@H]2C(=O)N3C(C(=O)O)=C(Cl)CS[C@H]23)cs1 yielded MIC of 0.5

Cc1nc(CC(=O)N[C@@H]2C(=O)N3C(C(=O)O)=C(Cl)CS[C@H]23)cs1 yielded MIC of 2

----------
Measured MIC (Haemophilus influenzae 76)
Numbers only here, please. The scale is µg/mL.

O=C(Cc1csc(-c2ccccc2)n1)N[C@@H]1C(=O)N2C(C(=O)O)=C(Cl)CS[C@H]12 [Compound 5] yielded MIC of 0.5

O=C(Cc1csc(Cl)n1)N[C@@H]1C(=O)N2C(C(=O)O)=C(Cl)CS[C@H]12 [Compound 3] yielded MIC of 2

Nc1nc(CC(=O)N[C@@H]2C(=O)N3C(C(=O)O)=C(Cl)CS[C@H]23)cs1 [Compound 2] yielded MIC of 0.5

Cc1nc(CC(=O)N[C@@H]2C(=O)N3C(C(=O)O)=C(Cl)CS[C@H]23)cs1 [Compound 4] yielded MIC of 1

----------
Give MIC for every item shown.
Numbers only here, please. The scale is µg/mL.

The compound O=C(Cc1csc(Cl)n1)N[C@@H]1C(=O)N2C(C(=O)O)=C(Cl)CS[C@H]12 on Staphylococcus epidermidis 222: MIC was 2

The compound O=C(Cc1csc(-c2ccccc2)n1)N[C@@H]1C(=O)N2C(C(=O)O)=C(Cl)CS[C@H]12 on Staphylococcus epidermidis 222: MIC was 0.5

The compound Cc1nc(CC(=O)N[C@@H]2C(=O)N3C(C(=O)O)=C(Cl)CS[C@H]23)cs1 on Staphylococcus epidermidis 222: MIC was 2

The compound Nc1nc(CC(=O)N[C@@H]2C(=O)N3C(C(=O)O)=C(Cl)CS[C@H]23)cs1 on Staphylococcus epidermidis 222: MIC was 1

----------
System: Klebsiella pneumoniae X26
Give MIC for every item shown.
Numbers only here, please. The scale is µg/mL.

O=C(Cc1csc(-c2ccccc2)n1)N[C@@H]1C(=O)N2C(C(=O)O)=C(Cl)CS[C@H]12 yielded MIC of 8

O=C(Cc1csc(Cl)n1)N[C@@H]1C(=O)N2C(C(=O)O)=C(Cl)CS[C@H]12 yielded MIC of 4

Cc1nc(CC(=O)N[C@@H]2C(=O)N3C(C(=O)O)=C(Cl)CS[C@H]23)cs1 yielded MIC of 2

Nc1nc(CC(=O)N[C@@H]2C(=O)N3C(C(=O)O)=C(Cl)CS[C@H]23)cs1 yielded MIC of 0.25
